The following compounds are listed with their measured inhibition values.
# targetUnderTest: Protein deacetylase HDAC6 (Homo sapiens)
# testSettings: at 10 µM
Among all 5,600 compounds or so, about 150 (2.7%) showed an effect of 50% or more. The full list was thinned out, with strong results kept by preference.

compound: O=C(NC1CCN(CCc2c[nH]c3ccccc23)CC1)c1ccccc1
unitInfo: %
inhibition: 22.6

compound: CC(C)(Sc1ccncc1-c1ccc(C#N)c2ccccc12)C(=O)O
unitInfo: %
inhibition: 2.75

compound: O=C(O)CCCN1C(=O)c2cccc3cccc(c23)C1=O
unitInfo: %
inhibition: -1.41

compound: C=C1/C(=C\C=C2/CCC[C@]3(C)[C@@H]([C@H](C)OCCC(C)(C)O)CC[C@@H]23)C[C@@H](O)C[C@@H]1O
unitInfo: %
inhibition: 1.22

compound: CC#C[C@@H](CC(=O)O)c1ccc(OCc2cccc(-c3ccc(C(F)(F)F)cc3)c2)cc1
unitInfo: %
inhibition: 5.76

compound: Nc1ccc(C(=O)O)c(O)c1
unitInfo: %
inhibition: -3.77

compound: CC(C)(C)C1CCc2c(sc(NC(=O)c3ccco3)c2C(=O)O)C1 (stereo not given)
unitInfo: %
inhibition: -1.94

compound: O=C(O)c1ccc2c(c1)nc(Nc1cccc(Cl)c1)c1ccncc12
unitInfo: %
inhibition: -4.86

compound: N#Cc1ccc(-c2ccc(S(=O)(=O)Nc3cccc(N)n3)cc2)cc1
unitInfo: %
inhibition: 2.23

compound: CCS(=O)(=O)c1ccc2oc(-c3ccc4ccccc4c3)nc2c1
unitInfo: %
inhibition: 37.2

compound: COc1ccc(-c2cc(=O)c3c(O)cc(O)cc3o2)cc1O
unitInfo: %
inhibition: 52.3

compound: O=C(O)c1ccc2nc(-c3cc(Cl)cc(Cl)c3)oc2c1
unitInfo: %
inhibition: 99.2

compound: O=C(O)c1cnn(-c2nc3cc(OC(F)(F)F)c(Cl)cc3[nH]2)c1
unitInfo: %
inhibition: 95.9

compound: O=C(/C=C/c1ccc2c(c1)OCO2)N1CCCCC1
unitInfo: %
inhibition: 67.8

compound: O=C(c1ccc2c(c1)OCO2)N1CCCCC1
unitInfo: %
inhibition: -4.9

compound: CSC1SC[C@H]2C(=O)N(C)[C@@H](C(C)C)C(=O)OC[C@@H](NC(=O)c3cnc4ccccc4n3)C(=O)N[C@@H](C)C(=O)N(C)[C@@H]1C(=O)N(C)[C@@H](C(C)C)C(=O)OC[C@@H](NC(=O)c1cnc3ccccc3n1)C(=O)N[C@@H](C)C(=O)N2C (stereo not given in full)
unitInfo: %
inhibition: -2.22

compound: CC(C)(C)c1ccc(S(=O)(=O)Nc2ccc(Cl)cc2C(=O)c2cc[n+]([O-])cc2)cc1
unitInfo: %
inhibition: -2.23

compound: O=C1Nc2ccccc2C2=NC(CN3CCN(c4ccccc4)CC3)CN12 (stereo not given)
unitInfo: %
inhibition: -3.43

compound: Nc1ncc2c(n1)CC(c1ccco1)CC2=O (stereo not given)
unitInfo: %
inhibition: 10.6

compound: Cn1nnc(-c2ccc(-c3ccc(N4C[C@H](CO)OC4=O)cc3F)cn2)n1
unitInfo: %
inhibition: 86.8

compound: O=C(COc1ccc(Cl)cc1)N1CCN(Cc2ccc3c(c2)OCO3)CC1
unitInfo: %
inhibition: -0.58

compound: CSc1ccc(C(=O)N[C@@H]2CCCC[C@@H]2NC(=O)CNC(=O)c2cc(C(F)(F)F)ccc2NC(=O)NC(C)C)cc1
unitInfo: %
inhibition: -5.32

compound: O=C(NC1CC1)c1cc(-c2cccs2)on1
unitInfo: %
inhibition: 60.8

compound: O=C(O)CN1C(=O)c2cccc3cccc(c23)C1=O
unitInfo: %
inhibition: 5.8

compound: CC(C)(C)C(O)/C=C/c1ccc2c(c1)OCO2 (stereo not given)
unitInfo: %
inhibition: 8.28
